Conditions: in formic acid, 288.9 K
METRIC: solubility (mole fraction)
Numbers only.

## Task For the compound shown here, "Cc1ccc(S(=O)(=O)[O-])cc1Cl.[Na+]" , give the reported solubility (mole fraction).
## Result 0.0383

====

Conditions: in DMSO, 323.5 K
METRIC: solubility (mole fraction)
Give bare numbers.

## Task For the compound shown here, "Cc1ccc(S(=O)(=O)[O-])cc1Cl.[Na+]" , give the reported solubility (mole fraction).
## Result 0.0912

====

Conditions: in water, 288.1 K
METRIC: solubility (mole fraction)
Answers are plain numbers.

## Task For the compound shown here, "Cc1ccc(S(=O)(=O)[O-])cc1Cl.[Na+]" , give the reported solubility (mole fraction).
## Result 0.00478

====

Conditions: in water, 296.5 K
METRIC: solubility (mole fraction)
Answers are plain numbers.

## Task For the compound shown here, "Cc1ccc(S(=O)(=O)[O-])cc1Cl.[Na+]" , give the reported solubility (mole fraction).
## Result 0.00592

====

Conditions: in methanol, 293 K
METRIC: solubility (mole fraction)
Give bare numbers.

## Task For the compound shown here, "Cc1ccc(S(=O)(=O)[O-])cc1Cl.[Na+]" , give the reported solubility (mole fraction).
## Result 0.00447

====

Details: in water, 314.6 K
METRIC: solubility (mole fraction)
One number for each entry.

## Task For the molecule shown here, "Cc1ccc(S(=O)(=O)[O-])cc1Cl.[Na+]" , give the reported solubility (mole fraction).
## Result 0.0092

====

Details: in DMSO, 335.2 K
METRIC: solubility (mole fraction)
Answers are plain numbers.

## Task For the molecule shown here, "Cc1ccc(S(=O)(=O)[O-])cc1Cl.[Na+]" , give the reported solubility (mole fraction).
## Result 0.0947

====

Settings: in DMSO, 330.2 K
METRIC: solubility (mole fraction)
One number for each entry.

## Task For the compound shown here, "Cc1ccc(S(=O)(=O)[O-])cc1Cl.[Na+]" , give the reported solubility (mole fraction).
## Result 0.0929

====

Conditions: in formic acid, 331.1 K
METRIC: solubility (mole fraction)

## Task For the compound shown here, "Cc1ccc(S(=O)(=O)[O-])cc1Cl.[Na+]" , give the reported solubility (mole fraction).
## Result 0.0491

====

Details: in water, 281 K
METRIC: solubility (mole fraction)
Give bare numbers.

## Task For the molecule shown here, "Cc1ccc(S(=O)(=O)[O-])cc1Cl.[Na+]" , give the reported solubility (mole fraction).
## Result 0.00416

====

Details: in formic acid, 295.9 K
METRIC: solubility (mole fraction)
Numbers only.

## Task For the compound shown here, "Cc1ccc(S(=O)(=O)[O-])cc1Cl.[Na+]" , give the reported solubility (mole fraction).
## Result 0.0398

====

Details: in water, 326.2 K
METRIC: solubility (mole fraction)
Give bare numbers.

## Task For the compound shown here, "Cc1ccc(S(=O)(=O)[O-])cc1Cl.[Na+]" , give the reported solubility (mole fraction).
## Result 0.0122

====

Conditions: in formic acid, 283 K
METRIC: solubility (mole fraction)
One number for each entry.

## Task For the molecule shown here, "Cc1ccc(S(=O)(=O)[O-])cc1Cl.[Na+]" , give the reported solubility (mole fraction).
## Result 0.037

====

Settings: in DMF, 297.6 K
METRIC: solubility (mole fraction)
Answers are plain numbers.

## Task For the molecule shown here, "Cc1ccc(S(=O)(=O)[O-])cc1Cl.[Na+]" , give the reported solubility (mole fraction).
## Result 0.0212
